meta.source: ChEMBL document CHEMBL1201862

System: CCRF-CEM
Assay: NCI tumour cell line growth inhibition, 48 h
The source made the active and inactive calls. Cut-off read from the data, not from the text of the source: active = GI50 up to about 1.1 µM and inactive = higher.
Listed below: GI50 values for each entry.
measuredAttribute: GI50

>>> observed("Cc1cc(NS(=O)(=O)c2ccc(Nc3c4ccccc4nc4c(C(=O)N5CCN(CCO)CC5)ccc(Cl)c34)cc2)no1")
"28.8 µM (inactive)"
>>> observed("O=C1C[C@H](c2ccccc2)C2(C(=O)c3ccccc3C2=O)[C@@H](c2ccccc2)C1")
"9.55 µM (inactive)"
>>> observed("O=c1c2ccccc2c(=O)c2c1cc(Cl)c1[nH]c3c([nH]c12)c(Cl)cc1c(=O)c2ccccc2c(=O)c13")
"> 100 µM (inactive)"
>>> observed("Nc1c(-c2cccc3ccccc23)c2ccc([N+](=O)[O-])cc2c(=O)n1-c1nc2ccccc2s1")
"1.33 µM (inactive)"
>>> observed("Cc1ccc(C(CC(=O)C(C)(C)CN2CCCCC2)SCCS(=O)(=O)O)cc1 (configuration not stated)")
"19.3 µM (inactive)"
>>> observed("COc1cc(NS(C)(=O)=O)ccc1NCc1c[nH]c2ccc3ncccc3c12")
"1.83 µM (inactive)"
>>> observed("CC1OC(c2ccc3c(OCc4ccccc4)cccc3c2O)CC(OCc2ccccc2)[C@H]1OCc1ccccc1 (some centres not stated)")
"> 10 µM (inactive)"
>>> observed("COc1nc(OC)nc(-c2cccc(F)c2)n1")
"9.2 µM (inactive)"
>>> observed("CCOC(OCC)[C@H](N)[C@@H](O)[C@@H](O)[C@H]1COC(C)(C)O1")
"> 100 µM (inactive)"
>>> observed("CC[N+](CC)(CCNCC(N)=O)CC(N)=O")
"> 10 µM (inactive)"
>>> observed("COc1cc(-c2c[nH]c3ccccc23)nc(-c2c[nH]c3ccccc23)n1")
"1.13 µM (inactive)"
>>> observed("O=C(O)c1ccc(C2C3C=CC(C3)C2[N+](=O)[O-])cc1 (configuration not stated)")
"> 100 µM (inactive)"
>>> observed("O=C(/C=C/c1ccc(/C=C/C(=O)c2ccc(O)cc2)cc1)c1ccc(O)cc1")
"> 100 µM (inactive)"
>>> observed("O=c1[nH]c2nc3ccccc3c(=O)n2/c1=C/c1ccc(O)cc1")
"20.8 µM (inactive)"
>>> observed("COc1ccc(-c2cnoc2-c2ccc(OC)c(OC)c2)cc1OC")
"1.73 µM (inactive)"
>>> observed("COc1ccc2nc3ccc(OC)cc3c(SCc3ccc([N+](=O)[O-])cc3)c2c1")
"> 100 µM (inactive)"
>>> observed("O=C1c2cc([N+](=O)[O-])sc2C(=O)c2ccsc21")
"0.075 µM (active)"

---

System: HCT-116
Test: NCI tumour cell line growth inhibition, 48 h
Activity calls are given as the source filed them. Rule as the data show it: active = GI50 up to about 1.1 µM and inactive = higher.
measuredAttribute: GI50

>>> observed("O=C(c1ccccc1)c1ccc2c(c1)nc1n2C(c2c(F)cccc2F)SC1 (centres undefined)")
"15 µM (inactive)"
>>> observed("CC1CC2C3CC(F)C4=CC(=O)C=CC4(C)C3(F)C(O)CC2(C)C1(O)C(=O)COC(=O)C(C)(C)C (centres undefined)")
"> 100 µM (inactive)"
>>> observed("COc1ccc(N2C(=O)C3ON(C(C(N)=O)c4ccccc4)C(c4ccc(-c5ccccc5)cc4)C3C2=O)cc1 (centres undefined)")
"> 50 µM (inactive)"
>>> observed("CCC1OC(=O)C(C)C(OC2CC(C)(O)C(O)C(C)O2)C(C)C(O)C(C)(O)CC(C)C(=O)C(C)C(O)C1C (centres undefined)")
"> 300 µM (inactive)"
